molecular target: OATP4C1 (Homo sapiens); experiment: Inhibition of OATP4C1-mediated T3 uptake in OATP4C1/MDCKII cells; details: IC50 for OATP4C1, AA(+) 10 µM, 1 µM T3, 10 min
Measured Endpoint: IC50 (µM)
Just the number in µM, nothing appended.

Name the recorded IC50 for O=c1c(O)c(-c2ccc(O)cc2)oc2cc(O)cc(O)c12 . 33.7

---

target: OATP4C1 (Homo sapiens); assay: Inhibition of OATP4C1-mediated T3 uptake in OATP4C1/MDCKII cells; details: Supplementary table
Measured Endpoint: OATP4C1 inhibition or elevation (class)

Example cases with answers are listed next.
Molecule: O=c1cc(-c2ccc(O)c(O)c2)oc2cc(O)cc(O)c12 [luteolin]
OATP4C1 inhibition or elevation (class): Yes
//
Molecule: O=c1cc(-c2ccc(O)cc2)oc2cc(O)cc(O)c12 [apigenin]
OATP4C1 inhibition or elevation (class): Yes
//
Molecule: O=c1c(O)c(-c2ccc(O)c(O)c2)oc2cc(O)ccc12 [fisetin]
OATP4C1 inhibition or elevation (class): No
//
Molecule: O=c1c(O)c(-c2ccc(O)c(O)c2)oc2cc(O)cc(O)c12 [quercetin]
OATP4C1 inhibition or elevation (class): Yes
//
Molecule: COc1ccc([C@@H]2CC(=O)c3c(O)cc(O[C@@H]4O[C@H](CO[C@@H]5O[C@@H](C)[C@H](O)[C@@H](O)[C@H]5O)[C@@H](O)[C@H](O)[C@H]4O)cc3O2)cc1O [Hesperidin, hesperidin]
OATP4C1 inhibition or elevation (class): No

Given COc1cc(/C=C/C(=O)O)ccc1O [ferulic acid, Ferulic acid] , state its recorded OATP4C1 inhibition or elevation (class). No

Also Oc1cc(O)c2cc(O)c(-c3ccc(O)c(O)c3)[o+]c2c1 [Cyanidin, Cyanidin chloride] ? Yes

Let us now turn to C[C@@H]1O[C@@H](O[C@H]2[C@H](Oc3cc(O)c4c(c3)O[C@H](c3ccc(O)cc3)CC4=O)O[C@H](CO)[C@@H](O)[C@@H]2O)[C@H](O)[C@H](O)[C@H]1O [Naringin, naringin] No

For COc1cc(-c2oc3cc(O)cc(O)c3c(=O)c2O)ccc1O [isorhamnetin] then? Yes

Could you do the same for C[C@@H]1O[C@@H](OC[C@H]2O[C@@H](Oc3c(-c4ccc(O)c(O)c4)oc4cc(O)cc(O)c4c3=O)[C@H](O)[C@@H](O)[C@@H]2O)[C@H](O)[C@H](O)[C@H]1O [Rutin, rutin] , please? No

Similarly, O=c1c(-c2ccc(O)cc2)coc2cc(O)cc(O)c12 [genistein] ? Yes

---

Molecular target: OATP4C1 (Homo sapiens, UniProt Q6ZQN7)
Sequence (Q6ZQN7 1-724): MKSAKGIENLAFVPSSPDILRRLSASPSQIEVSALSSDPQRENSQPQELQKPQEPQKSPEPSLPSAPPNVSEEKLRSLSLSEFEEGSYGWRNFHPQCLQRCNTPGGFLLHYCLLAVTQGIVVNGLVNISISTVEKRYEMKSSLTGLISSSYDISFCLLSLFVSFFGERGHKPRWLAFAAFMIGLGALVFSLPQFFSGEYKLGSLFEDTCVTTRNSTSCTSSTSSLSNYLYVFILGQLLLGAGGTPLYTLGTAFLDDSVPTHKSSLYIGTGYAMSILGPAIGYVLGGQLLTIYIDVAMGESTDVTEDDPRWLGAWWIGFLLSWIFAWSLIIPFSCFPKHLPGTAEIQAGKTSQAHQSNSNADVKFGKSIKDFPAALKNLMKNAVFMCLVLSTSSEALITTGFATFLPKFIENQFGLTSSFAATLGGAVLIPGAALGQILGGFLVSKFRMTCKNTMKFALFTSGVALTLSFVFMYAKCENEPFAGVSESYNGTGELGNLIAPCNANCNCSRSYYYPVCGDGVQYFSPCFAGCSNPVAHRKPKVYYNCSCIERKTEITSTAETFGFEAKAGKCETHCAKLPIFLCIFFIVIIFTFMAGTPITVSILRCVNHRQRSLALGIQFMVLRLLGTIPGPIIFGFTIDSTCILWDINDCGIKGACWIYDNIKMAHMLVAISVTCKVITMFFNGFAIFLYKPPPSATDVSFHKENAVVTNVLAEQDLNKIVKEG
Test: Inhibition of OATP4C1-mediated T3 uptake in OATP4C1/MDCKII cells
Conditions: IC50 for OATP4C1, AA(−), 1 µM T3, 10 min
Measured Endpoint: pIC50
By convention, pIC50 is the negative base-10 log of a molar concentration.

Could you tell me which pIC50 is on file for O=c1c(O)c(-c2ccc(O)cc2)oc2cc(O)cc(O)c12 [kaempferol] ? 4.53

---

target: OATP4C1 (Homo sapiens, UniProt Q6ZQN7); assay: Inhibition of OATP4C1-mediated T3 uptake in OATP4C1/MDCKII cells; conditions: Ki for OATP4C1 (average), AA(+) 10 µM, 1 µM T3, 10 min
Measured Endpoint: Ki (µM)
Write the number in µM without appending the unit.

I have this molecule here, O=c1c(O)c(-c2ccc(O)cc2)oc2cc(O)cc(O)c12 , and I need its recorded Ki. 28.8

---

target: UniProtKB Q6ZQN7; assay: Inhibition of OATP4C1-mediated T3 uptake in OATP4C1/MDCKII cells; details: Ki for OATP4C1 (average), AA(−), 1 µM T3, 10 min
Measured Endpoint: pKi
# log scale: pKi equals minus log10 of the concentration in mol/L

Would you mind telling me what pKi value was observed for O=c1c(O)c(-c2ccc(O)cc2)oc2cc(O)cc(O)c12 ? 4.60

---

molecular target: OATP4C1 (Homo sapiens); test: Inhibition of OATP4C1-mediated T3 uptake in OATP4C1/MDCKII cells; conditions: human, pH 7.4
Measured Endpoint: inhibition at 10 min, 100 µM (%)
State the answer as a number, implicitly in %.

Molecular String: O=c1c(-c2ccc(O)cc2)coc2cc(O)cc(O)c12
inhibition at 10 min, 100 µM / %: 42

Now for a further molecule.
inhibition at 10 min, 100 µM for COc1cc(-c2oc3cc(O)cc(O)c3c(=O)c2O)ccc1O ? 18

---

Target: OATP4C1 (Homo sapiens, UniProt Q6ZQN7)
Sequence (Q6ZQN7 1-724): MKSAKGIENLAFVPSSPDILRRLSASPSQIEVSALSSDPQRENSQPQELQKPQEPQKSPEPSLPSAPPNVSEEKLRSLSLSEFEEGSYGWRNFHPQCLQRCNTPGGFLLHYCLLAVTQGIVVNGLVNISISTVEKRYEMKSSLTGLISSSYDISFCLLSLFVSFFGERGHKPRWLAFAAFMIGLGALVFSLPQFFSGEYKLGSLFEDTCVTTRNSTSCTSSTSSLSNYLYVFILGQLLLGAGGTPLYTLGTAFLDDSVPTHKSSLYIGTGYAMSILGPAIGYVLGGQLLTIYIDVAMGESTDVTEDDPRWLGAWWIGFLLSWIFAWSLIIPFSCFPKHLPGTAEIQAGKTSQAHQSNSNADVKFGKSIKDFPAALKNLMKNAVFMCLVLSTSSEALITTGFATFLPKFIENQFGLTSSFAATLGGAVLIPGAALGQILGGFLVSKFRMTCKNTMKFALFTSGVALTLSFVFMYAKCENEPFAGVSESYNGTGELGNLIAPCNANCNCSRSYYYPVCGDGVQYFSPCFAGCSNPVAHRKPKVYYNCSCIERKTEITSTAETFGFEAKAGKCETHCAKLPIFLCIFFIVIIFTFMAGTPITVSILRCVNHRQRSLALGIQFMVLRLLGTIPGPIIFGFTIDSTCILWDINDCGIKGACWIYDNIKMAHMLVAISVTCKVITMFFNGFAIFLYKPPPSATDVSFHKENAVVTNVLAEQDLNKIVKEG
Assay: Inhibition of OATP4C1-mediated T3 uptake in OATP4C1/MDCKII cells
Settings: human, pH 7.4, probe T3 (1 µM), curcumin inhibition of OATP4C1-mediated transport, 50 µM curcumin, absence of AA, 1 µM T3, 10 min
Measured Endpoint: inhibition at 10 min, 50 µM (%)
Numeric only. Scale: %

Sample COc1cc(/C=C/C(=O)CC(=O)/C=C/c2ccc(O)c(OC)c2)ccc1O — what was its inhibition at 10 min, 50 µM? 33

---

Biological target: OATP4C1 (Homo sapiens)
Sequence (Q6ZQN7 1-724): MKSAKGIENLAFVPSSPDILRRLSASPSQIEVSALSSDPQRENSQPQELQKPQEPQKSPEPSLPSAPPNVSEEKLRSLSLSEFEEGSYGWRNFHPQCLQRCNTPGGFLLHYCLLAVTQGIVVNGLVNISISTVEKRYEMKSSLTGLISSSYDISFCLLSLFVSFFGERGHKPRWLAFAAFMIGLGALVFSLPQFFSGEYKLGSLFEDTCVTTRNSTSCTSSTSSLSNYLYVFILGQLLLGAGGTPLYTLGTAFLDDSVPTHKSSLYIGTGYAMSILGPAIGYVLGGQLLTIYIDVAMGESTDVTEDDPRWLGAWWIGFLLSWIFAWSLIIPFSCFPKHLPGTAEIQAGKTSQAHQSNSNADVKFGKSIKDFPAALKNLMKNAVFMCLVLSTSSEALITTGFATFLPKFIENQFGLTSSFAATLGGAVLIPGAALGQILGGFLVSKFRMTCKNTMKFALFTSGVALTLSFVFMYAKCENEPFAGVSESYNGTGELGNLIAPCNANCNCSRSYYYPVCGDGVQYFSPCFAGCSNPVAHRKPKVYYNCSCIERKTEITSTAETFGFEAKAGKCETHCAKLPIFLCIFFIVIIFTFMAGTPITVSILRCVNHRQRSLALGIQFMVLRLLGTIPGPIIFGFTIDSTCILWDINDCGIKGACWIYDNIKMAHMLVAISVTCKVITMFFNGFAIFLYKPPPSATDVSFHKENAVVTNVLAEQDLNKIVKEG
Assay: Inhibition of OATP4C1-mediated T3 uptake in OATP4C1/MDCKII cells
Conditions: human, pH 7.4, probe T3 (1 µM), OATP4C1 inhibition degree, 100 µM, Supplementary table
Measured Endpoint: inhibition at 10 min, 100 µM (%)

Field: example entries. Status: answers known.
Molecule: O=c1c(O)c(-c2ccc(O)cc2O)oc2cc(O)cc(O)c12
inhibition at 10 min, 100 µM, %: 57
//
Molecule: O=c1cc(-c2ccc(O)c(O)c2)oc2cc(O)cc(O)c12
inhibition at 10 min, 100 µM, %: 52
//
Molecule: O=c1c(O)c(-c2ccc(O)c(O)c2)oc2cc(O)cc(O)c12
inhibition at 10 min, 100 µM, %: 50
//
Molecule: O=c1c(-c2ccc(O)cc2)coc2cc(O)ccc12
inhibition at 10 min, 100 µM, %: 40
//
Molecule: Oc1ccc(/C=C/c2cc(O)cc(O)c2)cc1
inhibition at 10 min, 100 µM, %: 46

a = O=c1cc(-c2ccc(O)cc2)oc2cc(O)cc(O)c12
b = Oc1cc(O)c2cc(O)c(-c3ccc(O)c(O)c3)[o+]c2c1 [Cyanidin, Cyanidin chloride]
Lab notebook, comparison: a versus b , higher inhibition at 10 min, 100 µM goes to which? Your answer should be the label of the entry you select. a
(a: 54%, b: 24%)
